Collected Ratio values appear next to each entry.
system: Salmonella enterica subsp. enterica serovar Typhimurium; assay: Inhibition of Salmonella typhimurium T6PP using T6P as substrate assessed as fraction of enzyme unbound with compound by measuring ratio of initial velocities of T6P substrate hydrolysis in presence and absence of compound at 1 mM after 5 mins by BioMol green dye based HTS assay
I'd appreciate a reply containing only the number, no unit.

Nc1ccc(O[C@@H]2O[C@H](COS(=O)(=O)O)[C@@H](O)[C@H](O)[C@H]2O)cc1	0.94
NS(=O)(=O)OCc1cccc(N[C@@H]2O[C@H](CO)[C@@H](O)[C@H](O)[C@H]2O)c1	1
CO[C@H]1O[C@H](COS(=O)(=O)O)[C@@H](O)[C@H](OCc2ccccc2)[C@H]1O	0.99
O=S(=O)(O)OC[C@H]1O[C@@H](Oc2cccc(CO)c2)[C@H](O)[C@@H](O)[C@@H]1O	0.77
O=S(=O)(O)OC[C@H]1O[C@H](OCc2ccccc2)[C@H](O)[C@@H](O)[C@@H]1O	0.47

Quick one: Ratio for O=S(=O)(O)OC[C@H]1O[C@H](Oc2ccccc2)[C@H](O)[C@@H](O)[C@@H]1O ?
0.64

# lookup: Ratio of CCCCCCCCc1ccc(O[C@@H]2O[C@H](COS(=O)(=O)O)[C@@H](O)[C@H](O)[C@H]2O)cc1
0.01
